Origin of measurements: paper PMC9005681

# Inhibition 1 per record follows
target: cloned human or rodent CNS receptors, channels, and transporters (PDSP panel) (Homo sapiens); construct: expressed in transfected cells; assay: PDSP GPCR panel primary binding assays at 10 μM; settings: Receptor 5-HT2C; primary assay, 10 μM
quantity measured: Inhibition 1

compound: c1cn2cc(-c3ccc4cn[nH]c4c3)nc(Nc3ccc(N4CCOCC4)cc3)c2n1 [UNC10302678A, Entospletinib (GS-9973)]
measured value: -15.71%
//
compound: CCCCNc1ncc2c(-c3ccc(CN4CCN(C)CC4)cc3)cn([C@H]3CC[C@H](O)CC3)c2n1 [UNC2025C, UNC2025]
measured value: 29.45%
//
compound: O=c1oc2ccccc2cc1-c1cn2cc(Cc3ccc(F)cc3)sc2n1 [UNC10302680A, iMDK]
measured value: 16.2%
//
compound: Cl.NC(=O)c1cnc(N[C@@H]2CCCC[C@@H]2N)nc1Nc1cccc(-n2nccn2)c1 [UNC10302682A, P505-15 (PRT06207 HCl)]
measured value: 78.04%

---

molecular target: cloned human or rodent CNS receptors, channels, and transporters (PDSP panel) (Homo sapiens, UniProt P08912); construct: expressed in transfected cells; experiment: PDSP GPCR panel primary binding assays at 10 μM; settings: Receptor M5; primary assay, 10 μM; mean of Inhibition 1-4
Sequence (P08912 whole entry): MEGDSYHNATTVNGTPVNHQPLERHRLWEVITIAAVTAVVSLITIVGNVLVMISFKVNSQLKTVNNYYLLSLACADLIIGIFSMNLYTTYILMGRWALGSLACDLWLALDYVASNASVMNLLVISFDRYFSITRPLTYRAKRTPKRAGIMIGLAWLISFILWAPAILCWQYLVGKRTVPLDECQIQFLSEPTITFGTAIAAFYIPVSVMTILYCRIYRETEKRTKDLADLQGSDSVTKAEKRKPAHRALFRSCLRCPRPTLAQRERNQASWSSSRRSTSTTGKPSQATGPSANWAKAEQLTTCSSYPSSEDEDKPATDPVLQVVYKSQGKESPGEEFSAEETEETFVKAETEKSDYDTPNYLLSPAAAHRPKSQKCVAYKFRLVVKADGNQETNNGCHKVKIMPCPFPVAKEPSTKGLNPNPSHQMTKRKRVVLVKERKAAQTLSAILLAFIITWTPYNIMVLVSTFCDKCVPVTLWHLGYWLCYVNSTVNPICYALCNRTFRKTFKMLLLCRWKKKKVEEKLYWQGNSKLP

molecule: O=c1oc2ccccc2cc1-c1cn2cc(Cc3ccc(F)cc3)sc2n1 [UNC10302680A, iMDK]
Mean %, %: -8.92
//
molecule: c1cn2cc(-c3ccc4cn[nH]c4c3)nc(Nc3ccc(N4CCOCC4)cc3)c2n1 [UNC10302678A, Entospletinib (GS-9973)]
Mean %, %: -1.9
//
molecule: Cl.NC(=O)c1cnc(N[C@@H]2CCCC[C@@H]2N)nc1Nc1cccc(-n2nccn2)c1 [UNC10302682A, P505-15 (PRT06207 HCl)]
Mean %, %: 11.13
//
molecule: CCCCNc1ncc2c(-c3ccc(CN4CCN(C)CC4)cc3)cn([C@H]3CC[C@H](O)CC3)c2n1 [UNC2025C, UNC2025]
Mean %, %: 16.99

---

target: H1 receptor (Homo sapiens, UniProt P35367); construct: expressed in transfected cells; assay: PDSP secondary binding, H1; set-up: species or system human or rodent; settings: read-out: Ki (nM) 1; Receptor H1; secondary assay
Sequence (P35367 whole entry): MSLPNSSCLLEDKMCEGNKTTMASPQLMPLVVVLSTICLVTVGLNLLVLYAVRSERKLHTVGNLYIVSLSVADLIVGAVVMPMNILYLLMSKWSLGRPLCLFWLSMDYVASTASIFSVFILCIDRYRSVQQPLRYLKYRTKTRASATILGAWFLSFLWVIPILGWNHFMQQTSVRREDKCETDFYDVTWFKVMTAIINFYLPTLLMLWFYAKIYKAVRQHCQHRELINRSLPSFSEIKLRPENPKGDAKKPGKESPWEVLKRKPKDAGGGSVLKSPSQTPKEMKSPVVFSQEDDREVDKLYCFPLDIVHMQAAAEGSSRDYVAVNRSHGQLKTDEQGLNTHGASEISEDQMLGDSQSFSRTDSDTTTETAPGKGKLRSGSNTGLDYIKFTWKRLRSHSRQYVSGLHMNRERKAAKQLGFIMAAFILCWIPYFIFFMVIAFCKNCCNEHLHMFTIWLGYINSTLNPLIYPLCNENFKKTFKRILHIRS
quantity measured: Ki

molecule: c1cn2cc(-c3ccc4cn[nH]c4c3)nc(Nc3ccc(N4CCOCC4)cc3)c2n1 [UNC10302678A, Entospletinib (GS-9973)]
subject of test: H1 receptor (Homo sapiens, UniProt P35367)
measured value: > 10000 nM

---

# Inhibition 1 per record follows
target: cloned human or rodent CNS receptors, channels, and transporters (PDSP panel) (Homo sapiens); construct: expressed in transfected cells; test: PDSP GPCR panel primary binding assays at 10 μM; conditions: 5-HT2C; primary assay, replicate 1

molecule: CC(=O)N1CCC(NC(=O)NC23CC4CC(CC(C4)C2)C3)CC1 [UNC10302683A, AR9281]
Inhibition 1 / %: -9.33

molecule: CNc1nc(C)nc(N[C@H]2CCC[C@@H](C(=O)NCc3ccc(C#N)cc3C(F)(F)F)C2)n1 [UNC10302679A, GSK2256294A]
Inhibition 1 / %: 12.76

molecule: O=C(NC1CC1)C(=O)C(Cc1ccccc1)NC(=O)[C@H]1CCC(=O)N1Cc1ccccc1 (stereo partly shown) [UNC10302676A, ABT-957 (Alicapistat)]
Inhibition 1 / %: 14.23

molecule: CCC(=O)N1CCC(NC(=O)Nc2ccc(OC(F)(F)F)cc2)CC1 [UNC10302681A, TPPU]
Inhibition 1 / %: 3.44

---

# Inhibition 3 per record follows
target: cloned human or rodent CNS receptors, channels, and transporters (PDSP panel) (Homo sapiens, UniProt P08908); construct: expressed in transfected cells; assay: PDSP GPCR panel primary binding assays at 10 μM; details: Receptor 5-HT1A; primary assay, 10 μM
Sequence (P08908 whole entry): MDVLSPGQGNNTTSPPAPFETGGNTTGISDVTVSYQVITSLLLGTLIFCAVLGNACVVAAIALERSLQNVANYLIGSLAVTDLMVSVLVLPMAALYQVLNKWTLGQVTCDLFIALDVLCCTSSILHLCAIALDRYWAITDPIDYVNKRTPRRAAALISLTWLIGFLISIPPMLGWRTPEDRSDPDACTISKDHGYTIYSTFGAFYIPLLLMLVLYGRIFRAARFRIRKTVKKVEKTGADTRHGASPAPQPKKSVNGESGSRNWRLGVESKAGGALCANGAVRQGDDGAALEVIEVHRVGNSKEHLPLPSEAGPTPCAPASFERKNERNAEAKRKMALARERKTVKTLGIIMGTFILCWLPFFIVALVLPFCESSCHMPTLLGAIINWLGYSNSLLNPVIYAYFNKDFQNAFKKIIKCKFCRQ
quantity measured: Inhibition 3 (%)

molecule: O=c1oc2ccccc2cc1-c1cn2cc(Cc3ccc(F)cc3)sc2n1 [UNC10302680A, iMDK]
quantity measured: Inhibition 3
measured value: -6.98
//
molecule: CCCCNc1ncc2c(-c3ccc(CN4CCN(C)CC4)cc3)cn([C@H]3CC[C@H](O)CC3)c2n1 [UNC2025C, UNC2025]
quantity measured: Inhibition 3
measured value: 19.05
//
molecule: Cl.NC(=O)c1cnc(N[C@@H]2CCCC[C@@H]2N)nc1Nc1cccc(-n2nccn2)c1 [UNC10302682A, P505-15 (PRT06207 HCl)]
quantity measured: Inhibition 3
measured value: 1.29
//
molecule: c1cn2cc(-c3ccc4cn[nH]c4c3)nc(Nc3ccc(N4CCOCC4)cc3)c2n1 [UNC10302678A, Entospletinib (GS-9973)]
quantity measured: Inhibition 3
measured value: -3.19

---

# Inhibition 4 per record follows
target: cloned human or rodent CNS receptors, channels, and transporters (PDSP panel) (Homo sapiens); construct: expressed in transfected cells; test: PDSP GPCR panel primary binding assays at 10 μM; settings: D1; primary assay, replicate 4
quantity measured: Inhibition 4 (%)

compound: CNc1nc(C)nc(N[C@H]2CCC[C@@H](C(=O)NCc3ccc(C#N)cc3C(F)(F)F)C2)n1 [UNC10302679A, GSK2256294A]
measured value: 4.78
//
compound: O=C(NC1CC1)C(=O)C(Cc1ccccc1)NC(=O)[C@H]1CCC(=O)N1Cc1ccccc1 (stereo partly shown) [UNC10302676A, ABT-957 (Alicapistat)]
measured value: 19.83
//
compound: CCC(=O)N1CCC(NC(=O)Nc2ccc(OC(F)(F)F)cc2)CC1 [UNC10302681A, TPPU]
measured value: 4.61
//
compound: CC(=O)N1CCC(NC(=O)NC23CC4CC(CC(C4)C2)C3)CC1 [UNC10302683A, AR9281]
measured value: -1.7

---

# Inhibition 4 per record follows
target: cloned human or rodent CNS receptors, channels, and transporters (PDSP panel) (Homo sapiens); construct: expressed in transfected cells; experiment: PDSP GPCR panel primary binding assays at 10 μM; settings: Receptor KOR; primary assay, 10 μM

compound: O=c1oc2ccccc2cc1-c1cn2cc(Cc3ccc(F)cc3)sc2n1 [UNC10302680A, iMDK]
unit label: %
Inhibition 4: -21.38
//
compound: CCCCNc1ncc2c(-c3ccc(CN4CCN(C)CC4)cc3)cn([C@H]3CC[C@H](O)CC3)c2n1 [UNC2025C, UNC2025]
unit label: %
Inhibition 4: -19.03
//
compound: c1cn2cc(-c3ccc4cn[nH]c4c3)nc(Nc3ccc(N4CCOCC4)cc3)c2n1 [UNC10302678A, Entospletinib (GS-9973)]
unit label: %
Inhibition 4: -45.23
//
compound: Cl.NC(=O)c1cnc(N[C@@H]2CCCC[C@@H]2N)nc1Nc1cccc(-n2nccn2)c1 [UNC10302682A, P505-15 (PRT06207 HCl)]
unit label: %
Inhibition 4: -15.34

---

# Mean % per record follows
biological target: cloned human or rodent CNS receptors, channels, and transporters (PDSP panel) (Homo sapiens, UniProt P28566); construct: expressed in transfected cells; test: PDSP GPCR panel primary binding assays at 10 μM; conditions: Receptor 5-HT1E; primary assay, 10 μM; mean of Inhibition 1-4
Sequence (P28566 whole entry): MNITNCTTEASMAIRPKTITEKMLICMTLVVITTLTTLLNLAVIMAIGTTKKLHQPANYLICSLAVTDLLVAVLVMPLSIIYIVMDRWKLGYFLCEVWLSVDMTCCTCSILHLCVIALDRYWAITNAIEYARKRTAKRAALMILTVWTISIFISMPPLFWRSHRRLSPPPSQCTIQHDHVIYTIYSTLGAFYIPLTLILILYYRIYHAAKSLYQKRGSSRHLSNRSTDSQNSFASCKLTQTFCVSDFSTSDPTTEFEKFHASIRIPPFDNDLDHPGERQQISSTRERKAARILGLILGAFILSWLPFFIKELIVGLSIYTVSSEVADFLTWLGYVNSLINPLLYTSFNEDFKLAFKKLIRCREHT
quantity measured: Mean % (%)

compound: c1cn2cc(-c3ccc4cn[nH]c4c3)nc(Nc3ccc(N4CCOCC4)cc3)c2n1 [UNC10302678A, Entospletinib (GS-9973)]
quantity measured: Mean %
unit label: %
measured value: -7.59
//
compound: Cl.NC(=O)c1cnc(N[C@@H]2CCCC[C@@H]2N)nc1Nc1cccc(-n2nccn2)c1 [UNC10302682A, P505-15 (PRT06207 HCl)]
quantity measured: Mean %
unit label: %
measured value: -25.21
//
compound: O=c1oc2ccccc2cc1-c1cn2cc(Cc3ccc(F)cc3)sc2n1 [UNC10302680A, iMDK]
quantity measured: Mean %
unit label: %
measured value: -10.81
//
compound: CCCCNc1ncc2c(-c3ccc(CN4CCN(C)CC4)cc3)cn([C@H]3CC[C@H](O)CC3)c2n1 [UNC2025C, UNC2025]
quantity measured: Mean %
unit label: %
measured value: -3.27

---

system: cloned human or rodent CNS receptors, channels, and transporters (PDSP panel); experiment: PDSP GPCR panel primary binding assays at 10 μM; details: DOR; primary assay, replicate 3

compound: O=C(NC1CC1)C(=O)C(Cc1ccccc1)NC(=O)[C@H]1CCC(=O)N1Cc1ccccc1 (stereo partly shown) [UNC10302676A, ABT-957 (Alicapistat)]
Inhibition 3: -9.56%
//
compound: CC(=O)N1CCC(NC(=O)NC23CC4CC(CC(C4)C2)C3)CC1 [UNC10302683A, AR9281]
Inhibition 3: 0.93%
//
compound: CNc1nc(C)nc(N[C@H]2CCC[C@@H](C(=O)NCc3ccc(C#N)cc3C(F)(F)F)C2)n1 [UNC10302679A, GSK2256294A]
Inhibition 3: -1.78%
//
compound: CCC(=O)N1CCC(NC(=O)Nc2ccc(OC(F)(F)F)cc2)CC1 [UNC10302681A, TPPU]
Inhibition 3: -4.68%
